# assay_text: Displacement of [3H]flumazenil from central benzodiazepine receptor in human cortical membrane after 90 mins by beta liquid scintillation counting
# Format: cell membranes
pKi: −log10 of the molar value.
Binary call on pKi: criterion met from 7 upward, criterion not met beneath that.

{"chemical_string": "CCOC(=O)c1ncn2c1CN=C(c1ccc(F)cc1)c1cc(Cl)ccc1-2", "label": "criterion not met"}
{"chemical_string": "CCOC(=O)c1ncn2c1CN=C(c1cccc3ccccc13)c1cc(Cl)ccc1-2", "label": "criterion not met"}
{"chemical_string": "CCOC(=O)c1ncn2c1CN=C(c1ccc(C)cc1)c1ccccc1-2", "label": "criterion met"}
{"chemical_string": "CCOC(=O)c1ncn2c1CN=C(c1ccc(Cl)cc1)c1cc(Cl)ccc1-2", "label": "criterion not met"}
{"chemical_string": "CCOC(=O)c1ncn2c1CN=C(c1ccc(F)cc1)c1ccccc1-2", "label": "criterion met"}
{"chemical_string": "CCOC(=O)c1ncn2c1CN=C(c1ccc(OC)cc1)c1cc(Cl)ccc1-2", "label": "criterion not met"}
{"chemical_string": "CCOC(=O)c1ncn2c1CN=C(c1ccc(C)cc1)c1cc(Cl)ccc1-2", "label": "criterion not met"}
{"chemical_string": "CN1C(=O)CN=C(c2ccccc2F)c2cc([N+](=O)[O-])ccc21", "label": "criterion met"}
{"chemical_string": "CCOC(=O)c1ncn2c1CN=C(c1cccc([N+](=O)[O-])c1)c1cc(Cl)ccc1-2", "label": "criterion met"}

----------
# assay_text: Displacement of [3H]flumazenil from central benzodiazepine receptor in bovine cortical membrane after 90 mins by beta liquid scintillation counting
# Format: cell membranes, Bos taurus

{"molecule": "Clc1ccc(C2=NCc3c(-c4nnn[nH]4)ncn3-c3ccc(Cl)cc32)cc1", "measurement_units": "nM", "value_relation_sign": ">", "Ki": 10000}
{"molecule": "CCOC(=O)c1ncn2c1CN=C(c1ccc(F)cc1)c1cc(F)ccc1-2", "measurement_units": "nM", "value_relation_sign": "=", "Ki": 10.9}
{"molecule": "CCOC(=O)c1ncn2c1CN=C(c1ccc(F)cc1)c1ccccc1-2", "measurement_units": "nM", "value_relation_sign": "=", "Ki": 11.5}
{"molecule": "O=C1OCCC2N=C(c3ccccc3)c3ccccc3-n3cnc1c32 (stereo not drawn)", "measurement_units": "nM", "value_relation_sign": "=", "Ki": 283}
{"molecule": "CN1C(=O)CN=C(c2ccccc2F)c2cc([N+](=O)[O-])ccc21 [FLUNITRAZEPAM]", "measurement_units": "nM", "value_relation_sign": "=", "Ki": 5.17}
{"molecule": "CCOC(=O)c1ncn2c1C(C)N=C(c1ccccc1)c1ccccc1-2 (stereo not drawn)", "measurement_units": "nM", "value_relation_sign": "=", "Ki": 453}
{"molecule": "CCOC(=O)c1ncn2c1C(C)N=C(c1ccc(F)cc1)c1cc(F)ccc1-2 (stereo not drawn)", "measurement_units": "nM", "value_relation_sign": "=", "Ki": 510}
{"molecule": "CNC(=O)c1ncn2c1CN=C(c1ccc(Cl)cc1)c1cc(Cl)ccc1-2", "measurement_units": "nM", "value_relation_sign": ">", "Ki": 10000}
{"molecule": "CCOC(=O)c1ncn2c1CN(C)C(=O)c1cc(F)ccc1-2 [FLUMAZENIL]", "measurement_units": "nM", "value_relation_sign": "=", "Ki": 1.9}
{"molecule": "CCOC(=O)c1ncn2c1CN=C(c1ccc(C)cc1)c1cc(Cl)ccc1-2", "measurement_units": "nM", "value_relation_sign": "=", "Ki": 199}
{"molecule": "CCOC(=O)c1ncn2c1CN=C(c1ccc(Cl)cc1)c1ccc3ccccc3c1-2", "measurement_units": "nM", "value_relation_sign": ">", "Ki": 10000}
{"molecule": "CCOC(=O)c1ncn2c1CN=C(c1ccc(C)cc1)c1ccccc1-2", "measurement_units": "nM", "value_relation_sign": "=", "Ki": 11.4}
{"molecule": "CCOC(=O)c1ncn2c1CN=C(c1cccc([N+](=O)[O-])c1)c1cc(Cl)ccc1-2", "measurement_units": "nM", "value_relation_sign": "=", "Ki": 1.7}
{"molecule": "CCOC(=O)c1ncn2c1CN=C(c1ccc(Cl)cc1)c1ccccc1-2", "measurement_units": "nM", "value_relation_sign": "=", "Ki": 12.7}
{"molecule": "NC(=O)c1ncn2c1CN=C(c1ccc(Cl)cc1)c1cc(Cl)ccc1-2", "measurement_units": "nM", "value_relation_sign": ">", "Ki": 10000}
{"molecule": "CCOC(=O)c1ncn2c1CN=C(c1cccc3ccccc13)c1cc(Cl)ccc1-2", "measurement_units": "nM", "value_relation_sign": "=", "Ki": 186}
{"molecule": "CC(C)(C)OC(=O)c1ncn2c1CN=C(c1ccc(Cl)cc1)c1cc(Cl)ccc1-2", "measurement_units": "nM", "value_relation_sign": "=", "Ki": 1300}
{"molecule": "CCOC(=O)c1ncn2c1CN=C(c1ccc(OC)cc1)c1ccccc1-2", "measurement_units": "nM", "value_relation_sign": "=", "Ki": 110}

From: ChEMBL document CHEMBL2169854
